tested on: OVCAR-5; experiment: NCI tumour cell line growth inhibition, 48 h
Activity calls are given as the source filed them. No stated cut-off is given here; in the data, active = GI50 up to about 1.1 µM and inactive = higher.
Reported Endpoint: GI50

[
  {
    "Molecule": "COc1ccc(NC(=O)CC(=O)N2N=C(N(CCC#N)c3cccc(C)c3)CC2c2ccccc2)cc1 (stereo not given)",
    "Reported Endpoint": "GI50",
    "Meas Value": "> 100 µM (inactive)"
  },
  {
    "Molecule": "COC1=CC(=O)OC(/C=C(C)/C=C/C2=C(C)CCCC2(C)C)C1 (stereo not given)",
    "Reported Endpoint": "GI50",
    "Meas Value": "> 100 µM (inactive)"
  },
  {
    "Molecule": "O=C(/C=C/c1ccccc1)Oc1ccc(C(=O)/C=C/c2ccccc2)cc1",
    "Reported Endpoint": "GI50",
    "Meas Value": "13.7 µM (inactive)"
  },
  {
    "Molecule": "CN(Cc1ccccc1)c1nc(=[N+](C)C)ss1",
    "Reported Endpoint": "GI50",
    "Meas Value": "> 100 µM (inactive)"
  },
  {
    "Molecule": "NC(Cc1ccccc1)C(=O)OCN1C(=O)C2C3C=CC(C2C1=O)C1C2C(=O)N(COC(=O)C(N)Cc4ccccc4)C(=O)C2C31 (stereo not given)",
    "Reported Endpoint": "GI50",
    "Meas Value": "47 µM (inactive)"
  }
]

----------
test system: SK-MEL-2; test: NCI tumour cell line growth inhibition, 48 h
Calls of active or inactive are those of the source. Cut-off read from the data, not from the text of the source: active = GI50 up to about 1.1 µM and inactive = higher.

[
  {
    "Compound": "Oc1c(CN2CCN(c3ccccc3)CC2)cc(Br)c2cccnc12",
    "GI50": "2.17 µM (inactive)"
  },
  {
    "Compound": "CC(C)(O)/C=C\\P(=O)(O)O",
    "GI50": "> 100 µM (inactive)"
  },
  {
    "Compound": "CCOC(=O)c1ccc(/N=C\\c2ccc(N(CCC#N)CCC#N)cc2)cc1",
    "GI50": "> 100 µM (inactive)"
  },
  {
    "Compound": "COc1ccc(/C=C/C(=O)c2sc(NC(=S)NC(=O)c3ccc(Cl)cc3)nc2C)cc1OC",
    "GI50": "47.1 µM (inactive)"
  },
  {
    "Compound": "O=c1c2c3c(sc2nc2n1N=CN(c1ccc(F)cc1)C2)CCCC3",
    "GI50": "> 100 µM (inactive)"
  },
  {
    "Compound": "C=CC(Br)(CBr)CCC(Br)C(C)C (configuration not stated)",
    "GI50": "2.96 µM (inactive)"
  },
  {
    "Compound": "c1ccc(COc2cccc3ccc[n+](Cc4ccccc4)c23)cc1",
    "GI50": "5.21 µM (inactive)"
  },
  {
    "Compound": "Nc1c(-c2ccccc2-c2c(N)[n+]([O-])c3ccccc3[n+]2[O-])[n+]([O-])c2ccccc2[n+]1[O-]",
    "GI50": "34.8 µM (inactive)"
  },
  {
    "Compound": "CC1SC2=NC3=C(c4ccccc4C3=O)C(c3ccccc3Cl)N2C1=O (configuration not stated)",
    "GI50": "> 100 µM (inactive)"
  },
  {
    "Compound": "O=[N+]([O-])CC(SCc1ccccc1)c1ccc2c(c1)OCO2 (configuration not stated)",
    "GI50": "21.1 µM (inactive)"
  },
  {
    "Compound": "CNC(=O)OCC1=C(COC(=O)NC)C(C)N(c2ccc(OC)cc2)C1 (configuration not stated)",
    "GI50": "> 100 µM (inactive)"
  },
  {
    "Compound": "CC[As](CC)SCC1OC(OC(C)=O)C(OC(C)=O)C(OC(C)=O)C1OC(C)=O (configuration not stated)",
    "GI50": "12.6 µM (inactive)"
  },
  {
    "Compound": "CC(C)(C)C(=O)N1C(C(=O)O)Cc2ccccc2[C@@H]1Cc1ccccc1 (some centres not stated)",
    "GI50": "> 100 µM (inactive)"
  },
  {
    "Compound": "Clc1ccc(C2=NOC(C3CCCCC3)C2)cc1 (configuration not stated)",
    "GI50": "> 100 µM (inactive)"
  },
  {
    "Compound": "N#Cc1[nH]c(=O)n(-c2cccc3ccccc23)c1N",
    "GI50": "> 10 µM (inactive)"
  },
  {
    "Compound": "CCOC(=S)SC/C(=N\\OC(C)(C)OC)c1ccccc1",
    "GI50": "20.7 µM (inactive)"
  },
  {
    "Compound": "N#Cc1c(N2CCCC2)ncn(-c2ccccc2)c1=S",
    "GI50": "> 100 µM (inactive)"
  },
  {
    "Compound": "COc1ccc2c(c1)C(CCN)C(=O)N2 (configuration not stated)",
    "GI50": "> 100 µM (inactive)"
  },
  {
    "Compound": "COc1ccc(C2=NOP(c3ccccc3)(c3ccccc3)(c3ccccc3)C2)cc1",
    "GI50": "7.08 µM (inactive)"
  },
  {
    "Compound": "COc1ccc(C2CC(c3c(C)nn(-c4ccccc4)c3-c3ccc(C)cc3O)=NN2c2ccccc2)cc1 (configuration not stated)",
    "GI50": "14.1 µM (inactive)"
  },
  {
    "Compound": "Nc1ccc2nc(-c3ccccn3)c(-c3ccccn3)nc2c1",
    "GI50": "> 100 µM (inactive)"
  },
  {
    "Compound": "COc1ccc(C(=O)C(c2ccc(OC)cc2)C2(O)C(=O)Nc3ccc([N+](=O)[O-])cc32)cc1 (configuration not stated)",
    "GI50": "> 100 µM (inactive)"
  }
]

From: ChEMBL document CHEMBL1201862
